B1: Nuclear receptor subfamily 1 group D member 2, residues 103 to 171; numbered along this chain, Q14995 (parent)
chain: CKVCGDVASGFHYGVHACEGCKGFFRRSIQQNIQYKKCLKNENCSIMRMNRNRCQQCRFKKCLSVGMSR

# Variants of: B1
# ASSAY_METHOD_TEXT: abundance fitness (aPCA) (normalised: wild type 0, dead -1); higher = more abundant; growth selection in yeast, the domain comes from the species named
# CONDITION_LABEL: Homo sapiens
Catalogue of variants with associated abundance fitness
Give your answer as a number; write no unit.

As a guide, the following entries are already answered.
1. CKVCGDVASGFHYGVHACEGCKGFFRRSIQQNIQYKKCLKNENCSIMRMLRNRCQQCRFKKCLSVGMSR | -0.45
2. CKVCGDVASGFHYGVHACEGCKGFFRRSIQQNIQYKKCLKHENCSIMRMNRNRCQQCRFKKCLSVGMSR | -0.638
3. CKVCGDVASGFHYGVHACEGCKGFFRRSIQQNIQYKKCLKNENCSIMRMNRNRCQQCRFKKCLSVGMVR | -0.526
4. CKVCGDVASGFHYGVHACEGCKGFFRRSIQQNIQYKKCLKNENCSVMRMNRNRCQQCRFKKCLSVGMSR | 0.123

Query block: # lookup: abundance fitness of `CKVCGDVASGFHYGVHACEGCKGFRRRSIQQNIQYKKCLKNENCSIMRMNRNRCQQCRFKKCLSVGMSR`
Result block: -0.646

Query block: Reported abundance fitness for `CKVCGDVASGFHYGVHACEGCKGFFRRSIQQNIQYKKCLKNENCSIMRMNGNRCQQCRFKKCLSVGMSR` : what is it?
Result block: -0.001
